Listed compounds paired with reported Activity
# System: Mus musculus
# test-name: Antiosteoporosis activity against ovariectomized ICR mouse assessed as serum calcium level at 110.3 nmol/kg, po after 30 mins
# Format: functional
Numbered stars: 1 amine (or outer) side, 2 acyl side, 3 side chain; on linkers, the order of the positions; unused ones are H or OH. Bridge positions count the residues as written; N and C are the ends. Peptide text beside a SMILES is read from it. I, II: the chains in the order shown. * marks the point of attachment. Estradiol(3-OCH2CO,17-OSuc) = C[C@]12CC[C@@H]3c4ccc(OCC(=O)[*:1])cc4CC[C@H]3[C@@H]1CC[C@@H]2OC(=O)CCC(=O)[*:2]; Succinyl(O17-estradiol) = C[C@]12CC[C@@H]3c4ccc(O)cc4CC[C@H]3[C@@H]1CC[C@@H]2OC(=O)CCC(=O)*; Acetyl(estradiol-3-yloxy) = C[C@]12CC[C@@H]3c4ccc(OCC(=O)*)cc4CC[C@H]3[C@@H]1CC[C@@H]2O; X1 = C[C@]12CC[C@@H]3c4ccc(OCC(=O)*)cc4CC[C@H]3[C@@H]1CCC2=O
A number alone suffices; assume mM.

# compound, Activity (mM)
records = [
    ("C[C@]12CC[C@@H]3c4ccc(OCC(=O)N[C@@H](CCCNC(=N)N)C(=O)NCC(=O)N[C@@H](CC(=O)O)C(=O)N[C@@H](Cc5ccccc5)C(=O)O)cc4CC[C@H]3[C@@H]1CC[C@@H]2OC(=O)CCC(=O)N[C@@H](CCCNC(=N)N)C(=O)NCC(=O)N[C@@H](CC(=O)O)C(=O)N[C@@H](Cc1ccccc1)C(=O)O (I: RGDF-OH / II: RGDF-OH; linker I:N-II:N via Estradiol(3-OCH2CO,17-OSuc))", 3.19),
    ("C[C@]12CC[C@@H]3c4ccc(OCC(=O)N[C@@H](CCCNC(=N)N)C(=O)NCC(=O)N[C@@H](CC(=O)O)C(=O)N[C@@H](CO)C(=O)O)cc4CC[C@H]3[C@@H]1CC[C@@H]2OC(=O)CCC(=O)N[C@@H](CCCNC(=N)N)C(=O)NCC(=O)N[C@@H](CC(=O)O)C(=O)N[C@@H](CO)C(=O)O (I: RGDS-OH / II: RGDS-OH; linker I:N-II:N via Estradiol(3-OCH2CO,17-OSuc))", 3.22),
    ("CC(C)[C@H](NC(=O)[C@H](CC(=O)O)NC(=O)CNC(=O)[C@H](CCCNC(=N)N)NC(=O)COc1ccc2c(c1)CC[C@@H]1[C@@H]2CC[C@]2(C)C(=O)CC[C@@H]12)C(=O)O (X1-RGDV-OH)", 3.33),
    ("C[C@]12CC[C@@H]3c4ccc(O)cc4CC[C@H]3[C@@H]1CC[C@@H]2OC(=O)CCC(=O)N[C@@H](CCCNC(=N)N)C(=O)NCC(=O)N[C@@H](CC(=O)O)C(=O)N[C@@H](Cc1ccccc1)C(=O)O ({Succinyl(O17-estradiol)}-RGDF-OH)", 3.34),
    ("CC(C)[C@H](NC(=O)[C@H](CC(=O)O)NC(=O)CNC(=O)[C@H](CCCNC(=N)N)NC(=O)CCC(=O)O[C@H]1CC[C@H]2[C@@H]3CCc4cc(OCC(=O)N[C@@H](CCCNC(=N)N)C(=O)NCC(=O)N[C@@H](CC(=O)O)C(=O)N[C@H](C(=O)O)C(C)C)ccc4[C@H]3CC[C@]12C)C(=O)O (I: RGDV-OH / II: RGDV-OH; linker I:N-II:N via Estradiol(3-OCH2CO,17-OSuc))", 3.17),
]

Which Activity value is on record for C[C@]12CC[C@@H]3c4ccc(OCC(=O)N[C@@H](CCCNC(=N)N)C(=O)NCC(=O)N[C@@H](CC(=O)O)C(=O)N[C@@H](Cc5ccccc5)C(=O)O)cc4CC[C@H]3[C@@H]1CC[C@@H]2O ({Acetyl(estradiol-3-yloxy)}-RGDF-OH) ? 3.34

Which Activity value is on record for CC(C)[C@H](NC(=O)[C@H](CC(=O)O)NC(=O)CNC(=O)[C@H](CCCNC(=N)N)NC(=O)COc1ccc2c(c1)CC[C@@H]1[C@@H]2CC[C@]2(C)[C@@H](O)CC[C@@H]12)C(=O)O ({Acetyl(estradiol-3-yloxy)}-RGDV-OH) ? 3.32
